studyTarget: human IBAT (Homo sapiens)
Sequence (Q12908 whole entry): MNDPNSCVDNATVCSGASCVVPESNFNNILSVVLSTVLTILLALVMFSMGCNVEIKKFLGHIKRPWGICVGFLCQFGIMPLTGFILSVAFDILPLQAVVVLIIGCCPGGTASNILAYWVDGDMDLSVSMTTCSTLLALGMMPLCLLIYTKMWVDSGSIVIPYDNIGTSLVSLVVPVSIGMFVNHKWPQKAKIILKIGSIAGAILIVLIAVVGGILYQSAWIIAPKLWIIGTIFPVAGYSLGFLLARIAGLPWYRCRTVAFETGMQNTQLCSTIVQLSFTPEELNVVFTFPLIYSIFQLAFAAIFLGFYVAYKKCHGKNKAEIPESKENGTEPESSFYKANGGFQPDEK
assayMethodText: In vitro assay of temporarily expressed human IBAT transporter using Cos 7 cells (Test Example 8)
measurementParameters: Cos 7 cells temporarily expressing human IBAT; [3H] taurocholate 8 μM, 37° C., 60 minutes
pIC50: −log10 of the molar value.
measuredAttribute: pIC50

>>> experimentalvalue("CCCCC1(CCCC)CS(=O)(=O)c2ccc(N(C)C)cc2C(c2cccc(NC(=S)Nc3ccc(C[N+]4(C)CCC(O)CC4)cc3)c2)N1 (centres unmarked)")
7.27
>>> experimentalvalue("CCCCCCCC[N+](C)(C)Cc1ccc(NC(=S)Nc2cccc(C3NC(CCCC)(CCCC)CS(=O)(=O)c4ccc(N(C)C)cc43)c2)cc1 (centres unmarked)")
7.12
>>> experimentalvalue("CCCCC1(CCCC)CS(=O)(=O)c2ccc(N(C)C)cc2C(c2cccc(NC(=S)Nc3ccc(C[n+]4ccc(C(C)=O)cc4)cc3)c2)N1 (centres unmarked)")
7.30
>>> experimentalvalue("CCCCC1(CCCC)CS(=O)(=O)c2ccc(N(C)C)cc2C(c2cccc(NC(=S)NCCC[N+]34CCC(CC3)CC4)c2)N1 (centres unmarked)")
7.12

a: C=CC[N+](CC)(CC)Cc1cccc(NC(=S)Nc2cccc(C3NC(CCCC)(CCCC)CS(=O)(=O)c4ccc(N(C)C)cc43)c2)c1 (centres unmarked)
b: CCCCC1(CCCC)CS(=O)(=O)c2ccc(N(C)C)cc2C(c2cccc(NC(=S)Nc3ccc(C[n+]4cc(O)cc(Cl)c4)cc3)c2)N1 (centres unmarked)
Returns: the label, a or b , whose recorded pIC50 is the lower number. Reply with the label of the item you choose. a
(a: 7.04, b: 7.59)
